Data credit: PubChem BioAssay (NCI)

experiment_notes: NCI Yeast Anticancer Drug Screen. Data for the bub3 strain (AID 167)
run_parameters: S. cerevisiae bub3 mutant strain, at 11.0 µM, active compounds read high
Compounds without any hit were thinned out: in the full panel of roughly 79,000, 15% have a hit.
parameter: growth inhibition (%)
Kindly provide the numeric value in % only, without the unit symbol.

Examples with their reported growth inhibition follow.
- CCOC(=O)C#Cc1ccc([N+](=O)[O-])cc1: -1
- O=c1c2ccccc2nc(-c2ccccc2)n1O: 78
- CCCCN(CCCC)C(=O)/C=C/c1ccccc1: 21
- CCN(CC)CCNc1ccc([N+](=O)[O-])c2nc3ccccc3c(N)c12: -21
- CC(=O)Nc1ccc2c(c1)Cc1cc(N=C3C=CC(=O)O3)ccc1-2: 72

-- ask Check the records and state growth inhibition for Cc1cccc[n+]1C1CCc2c(ccc3ccccc23)C1=O (centres undefined)
-- reply 3

-- ask Check the records and state growth inhibition for Cc1sc2ccc3ccccc3c2[n+]1C
-- reply -28

-- ask Check the records and state growth inhibition for Cc1c2cc[n+](Cc3ccc(I)cc3)cc2c(C)c2c1[nH]c1ccccc12
-- reply 97

-- ask Check the records and state growth inhibition for CCN(CC)Cc1cc(Nc2c3ccccc3nc3c2[nH]c2ccccc23)cc(CN(CC)CC)c1O
-- reply -3

-- ask Check the records and state growth inhibition for CCc1ccc2c(c1)N(CC(C)CN(C)C)c1ccccc1S2 (centres undefined)
-- reply 18

* * *

# reported growth inhibition; entries follow
experiment_notes: NCI Yeast Anticancer Drug Screen. Data for the rad52 strain (AID 147);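 further: 0% = growth of vehicle-treated control cultures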
run_parameters: S. cerevisiae rad52 mutant growth inhibition; at 1.2 µM; active compounds read high
About 79,000 compounds went through this panel and 15% of them were active in at least one assay; those are over-represented in the sample as a whole.
Kindly provide the numeric value in % only, without the unit symbol.

- O=C1CC(=O)c2ccccc21: -2
- O=C(CSC(=S)N1CCCCC1)Nc1nc2c(s1)CCCC2: 1
- c1ccc2c(c1)sc1c3cnccc3ccc21: 11
- OC1(c2ccccc2)CCCc2ccc(Cl)cc21 (stereo unspecified): 1
- C[C@@](O)(/C=C/[C@H]1CC=CC(=O)O1)[C@@H](C[C@@H](O)\C=C/C=C\C=C\CO)OP(=O)(O)O: 26

Continue with the next compound.
-- ask Check the records and state growth inhibition for N#CC(C#N)=NNc1ccc(S(=O)(=O)O)cc1
-- reply -6

* * *

experiment_notes: NCI Yeast Anticancer Drug Screen. Data for the CLN2oe strain (AID 163);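 further: 0% = growth of vehicle-only control cultures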
run_parameters: S. cerevisiae CLN2oe strain, at 11.0 µM, active compounds read high
This is part of a sample that, as a whole, favours compounds with a hit. Of some 79,000 tested, about 15% had one in any assay.
parameter: growth inhibition (%)
Kindly provide the numeric value in % only, without the unit symbol.

Examples with their reported growth inhibition follow.
• Cc1cc(C(C)(C)CC(C)(C)C)ccc1O = -17
• O=C(NO)Nc1cc(Cl)cc(Cl)c1 = 99
• OC(/C=C/c1ccccc1)(Cc1cc(-c2ccccc2)n[nH]1)c1ccccc1 (stereo not drawn) = 24
• CCC1(OC(=O)CN2CCN(CCO)CC2)C(=O)OCc2c1cc1n(c2=O)Cc2cc3ccccc3nc2-1 (stereo not drawn) = 2
• Cc1cc2c3ccccc3c3ccccc3c2nn1 = 1
• O=C(O)CNC(=S)Nc1ccccc1 = -3
• c1ccc2[nH]c(-c3cscn3)nc2c1 = -7
• CS(=O)(=O)OCCN(CCOS(C)(=O)=O)c1ccc(C=Nc2ccc(-c3csc(COc4ccccc4)n3)cc2)cc1 = 45

-- ask Check the records and state growth inhibition for Cc1cccc2c1nc1ccc(Cl)cc1[n+]2C
-- reply 89

-- ask Check the records and state growth inhibition for O=c1c2ccccc2nc(-c2ccccc2)n1O
-- reply 29
